meta.source: patent US20240117334A1

Consider the following binders; for each one, report its fB Cleavage EC50.
target entity: Human Factor B (human) (UniProt P00751)
Sequence (P00751 26-764 limits assumed): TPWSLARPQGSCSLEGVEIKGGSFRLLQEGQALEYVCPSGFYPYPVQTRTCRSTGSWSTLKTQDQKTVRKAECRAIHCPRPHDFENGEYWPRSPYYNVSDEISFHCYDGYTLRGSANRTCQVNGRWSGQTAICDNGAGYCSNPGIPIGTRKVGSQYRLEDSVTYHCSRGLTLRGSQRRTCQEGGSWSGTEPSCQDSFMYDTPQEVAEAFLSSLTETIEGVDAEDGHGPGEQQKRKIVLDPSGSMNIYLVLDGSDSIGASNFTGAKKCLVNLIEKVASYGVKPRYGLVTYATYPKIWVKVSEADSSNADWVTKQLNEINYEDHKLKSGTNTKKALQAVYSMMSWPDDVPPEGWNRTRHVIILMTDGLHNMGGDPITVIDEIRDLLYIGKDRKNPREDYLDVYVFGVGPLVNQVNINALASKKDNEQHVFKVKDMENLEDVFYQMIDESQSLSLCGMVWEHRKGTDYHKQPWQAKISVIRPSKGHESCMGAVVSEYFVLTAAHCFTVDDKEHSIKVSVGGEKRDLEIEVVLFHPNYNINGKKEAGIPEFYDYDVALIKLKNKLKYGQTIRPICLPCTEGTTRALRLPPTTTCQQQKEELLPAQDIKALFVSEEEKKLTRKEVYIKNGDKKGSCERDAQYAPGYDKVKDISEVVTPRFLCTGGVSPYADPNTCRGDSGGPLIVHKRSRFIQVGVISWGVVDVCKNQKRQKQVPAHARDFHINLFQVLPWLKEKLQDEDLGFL
test protocol: cell-based or functional assay
A number alone suffices; assume nM.

Summary for this binder, chymase C22S/K40M/F41R/L99Q/F173Y/D175R/S218V/A226R (enzyme) IIGGTESKPHSRPYMAYLEIVTSNGPSMRCGGFLIRRNFVLTAAHCAGRSITVTLGAHNITEEEDTWQKLEVIKQFRHPKYNTSTQHHDIMLLKLKEKASLTLAVGTLPFPSQFNFVPPGRMCRVAGWGRTGVLKPGSDTLQEVKLRLMDPQACSHYRRFDHNLQLCVGNPRKTKSAFKGDSGGPLLCAGVAQGIVSYGRVDAKPPRVFTRISHYRPWINQILQAN : fB Cleavage EC50 is 235

Summary for this binder, chymase C22S/P38Q/K40M/F41H/L99H/V138I/D175S/A190S/V213A/S218V/A226R (enzyme) IIGGTESKPHSRPYMAYLEIVTSNGQSMHCGGFLIRRNFVLTAAHCAGRSITVTLGAHNITEEEDTWQKLEVIKQFRHPKYNTSTHHHDIMLLKLKEKASLTLAVGTLPFPSQFNFVPPGRMCRIAGWGRTGVLKPGSDTLQEVKLRLMDPQACSHFRSFDHNLQLCVGNPRKTKSSFKGDSGGPLLCAGVAQGIASYGRVDAKPPRVFTRISHYRPWINQILQAN : fB Cleavage EC50 is 277
